- procedure_summary: Example 1: image storage stability 1 (developed material stored in the dark)
- assay_context: Table 1, 1.6×10^-1 mol/mol-Ag, 24 hours, relative humidity 50%
outcome_measure: Image storage stability-1 (stored in dark, 60°C, 50%) Dmin

1) CCNC(=O)c1ccccc1S(=O)(=O)C(Br)(Br)Br    0.41
2) CCCCCCOCCN(CC)C(=O)c1cccc(S(=O)(=O)C(Br)(Br)Br)c1    0.17
3) CCCCNS(=O)(=O)c1cccc(S(=O)(=O)C(Br)(Br)Br)c1    0.20
4) COCCCNC(=O)c1cccc(S(=O)(=O)C(Br)(Br)Br)c1    0.17

----------
- procedure_summary: Example 1: image storage stability 2 (developed material stored under light irradiation)
- assay_context: Table 2, 1.6×10^-1 mol/mol-Ag, 24 hours, 10,000 luces, relative humidity 50%
outcome_measure: Image storage stability-2 (stored in light, 40°C, 50%) Dmin

1. CCCCCCCCN(CCCCCCCC)S(=O)(=O)c1ccc(S(=O)(=O)C(Br)(Br)Br)cc1 [Comparative Compound (4)]    0.47
2. CCOCCNC(=O)c1cccc(S(=O)(=O)C(Br)(Br)Br)c1 [P'-1]    0.17
3. O=C(c1cccc(S(=O)(=O)C(Br)(Br)Br)c1)N1CCCC1 [Comparative Compound (3)]    0.40
4. CCCCCCCCCCCCCCCCNC(=O)c1cccc(S(=O)(=O)C(Br)(Br)Br)c1 [Comparative Compound (1)]    0.43
5. CCCCOCCCNC(=O)c1cccc(S(=O)(=O)C(Br)(Br)Br)c1 [P'-15]    0.17
6. CCC(CC)NC(=O)c1cccc(S(=O)(=O)C(Br)(Br)Br)c1 [P'-18]    0.17
7. CCCC(C)NC(=O)c1cccc(S(=O)(=O)C(Br)(Br)Br)c1 (centres unmarked) [P'-20]    0.17
8. CCCCCCCCCCCCN(CCCCCCCCCCCC)C(=O)c1cc(S(C)(=O)=O)ccc1S(=O)(=O)C(Br)(Br)Br [Comparative Compound (5)]    0.50

----------
molecules and their reported Image storage stability-1 (stored in dark, 60°C, 50%) Dmin
- procedure_summary: Example 2: image storage stability 1 (developed material stored in the dark)
- assay_context: Table 4, 8×10^-2 mol/mol-Ag, 24 hours, relative humidity 50%
outcome_measure: Image storage stability-1 (stored in dark, 60°C, 50%) Dmin

1) CCCCCCCCCCCCCCCCNC(=O)c1cccc(S(=O)(=O)C(Br)(Br)Br)c1    0.35
2) CCCCCCCCCCCCN(CCCCCCCCCCCC)C(=O)c1cc(S(C)(=O)=O)ccc1S(=O)(=O)C(Br)(Br)Br    0.43
3) CCOCCNC(=O)c1cccc(S(=O)(=O)C(Br)(Br)Br)c1    0.09
4) O=C(c1cccc(S(=O)(=O)C(Br)(Br)Br)c1)N1CCCC1    0.44
5) CCCC(C)NC(=O)c1cccc(S(=O)(=O)C(Br)(Br)Br)c1 (centres unmarked)    0.09
6) CCC(CC)NC(=O)c1cccc(S(=O)(=O)C(Br)(Br)Br)c1    0.09
7) CCCCCCCCN(CCCCCCCC)S(=O)(=O)c1ccc(S(=O)(=O)C(Br)(Br)Br)cc1    0.39
8) CCCCOCCCNC(=O)c1cccc(S(=O)(=O)C(Br)(Br)Br)c1    0.09
